# ASSAY TARGET: CDK9 (Homo sapiens)
# Construct: endogenous in cells; host or cells: MDA-MB-231
# Sequence (P50750 whole entry): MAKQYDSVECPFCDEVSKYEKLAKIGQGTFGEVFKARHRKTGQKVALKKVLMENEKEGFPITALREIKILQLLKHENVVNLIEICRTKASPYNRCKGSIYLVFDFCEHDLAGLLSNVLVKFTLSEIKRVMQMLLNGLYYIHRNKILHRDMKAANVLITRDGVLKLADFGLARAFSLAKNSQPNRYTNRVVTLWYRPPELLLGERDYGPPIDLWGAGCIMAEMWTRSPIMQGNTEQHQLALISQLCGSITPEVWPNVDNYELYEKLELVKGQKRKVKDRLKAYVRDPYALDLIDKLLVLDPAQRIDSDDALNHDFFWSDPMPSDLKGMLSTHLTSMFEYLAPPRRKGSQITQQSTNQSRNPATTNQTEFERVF
# TEST METHOD NOTES: CDK protein degradation activity (Western blotting), CDK9
# Type: cell-based
# TEST CONTEXT: MDA-MB-231 cells, 10 μM, 16 hours, Western blot
MEASUREMENT LABEL: Enzyme degradation CDK9 (% remaining) @ 10 μM (%)
Give bare numbers, in %.

Sample answers from the record:
O=C1CC[C@H](N2C(=O)c3cccc(OCC(=O)N4CCC(CN5CCC(CNc6ncnc7c6ncn7C6CC(NC(=O)Cc7ccccc7)C6)CC5)CC4)c3C2=O)C(=O)N1 (stereo partly shown) ... 0
COc1ccc(C(=O)N2CCC(CC(=O)N3CCN(c4ccc(Nc5ncnc6c5ncn6[C@H]5C[C@@H](NC(=O)Cc6ccccc6)C5)cc4)CC3)CC2)cc1N1CCC(=O)NC1=O ... 40
O=C1CC[C@H](N2C(=O)c3ccc(N4CCC5(CC4)CC(N4CCN(c6ccc(Nc7ncnc8c7ncn8[C@H]7C[C@@H](NC(=O)Cc8ccccc8)C7)cc6)CC4)C5)cc3C2=O)C(=O)N1 ... 0
O=C1CC[C@H](N2C(=O)c3ccc(N4CCN(CCC5CCN(c6ccc(Nc7ncnc8c7ncn8[C@H]7C[C@@H](NC(=O)Cc8ccccc8)C7)cc6)CC5)CC4)cc3C2=O)C(=O)N1 ... 0
Cc1cccc(C(=O)N[C@H]2C[C@H](n3cnc4c(NCCCN5CCN(C(=O)CNc6ccc7c(c6)C(=O)N([C@@H]6CCC(=O)NC6=O)C7=O)CC5)ncnc43)C2)n1 ... 50
O=C1CC[C@H](N2C(=O)c3ccc(N4CC(N5CCC6(CC5)CC(N5CCN(c7ccc(Nc8ncnc9c8ncn9C8CC(NC(=O)Cc9ccccc9)C8)cc7)CC5)C6)C4)cc3C2=O)C(=O)N1 (stereo partly shown) ... 10

State the recorded Enzyme degradation CDK9 (% remaining) @ 10 μM for every item in the following list.
1. O=C1CC[C@H](N2C(=O)c3cccc(N4CCC5(CC4)CC(N4CCN(c6ccc(Nc7ncnc8c7ncn8[C@H]7C[C@@H](NC(=O)Cc8ccccc8)C7)cc6)CC4)C5)c3C2=O)C(=O)N1
2. O=C1CC[C@H](N2C(=O)c3ccc(N4CCN(CC5CCN(c6ccc(Nc7ncnc8c7ncn8C7CC(NC(=O)Cc8ccccc8)C7)cc6)CC5)CC4)cc3C2=O)C(=O)N1 (stereo partly shown)
3. Cc1cccc(C(=O)N[C@H]2C[C@@H](n3cnc4c(Nc5ccc(N6CCN(CC7CCN(C(=O)C8CCN(c9cc%10c(cc9F)C(=O)N([C@H]9CCC(=O)NC9=O)C%10=O)CC8)CC7)CC6)cc5)ncnc43)C2)n1
4. O=C1CC[C@H](N2C(=O)c3ccc(OCC(=O)N4CCC(CCCN5CCN(c6ccc(Nc7ncnc8c7ncn8[C@H]7C[C@@H](NC(=O)Cc8ccccc8)C7)cc6)CC5)CC4)cc3C2=O)C(=O)N1
5. Cc1cccc(C(=O)NC2CC(n3cnc4c(NCc5ccc(OCC6CCN(c7ccc8c(c7)C(=O)N([C@H]7CCC(=O)NC7=O)C8=O)CC6)cc5)ncnc43)C2)n1 (stereo partly shown)

Data returned:
1. 10
2. 0
3. 10
4. 0
5. 30

---

I'd appreciate it if you could supply Enzyme degradation CDK2 (% remaining) @ 10 μM values for the items below.
# ASSAY TARGET: CDK2 (Homo sapiens, UniProt P24941)
# Construct: endogenous in cells; host or cells: MDA-MB-231
# TEST METHOD NOTES: CDK protein degradation activity (Western blotting), CDK2
# Type: cell-based
# TEST CONTEXT: MDA-MB-231 cells, 10 μM, 16 hours, Western blot
Numbers only, in %.

O=C1CC[C@H](N2C(=O)c3cccc(NCC(=O)N4CCN(CCCN5CCN(c6ccc(Nc7ncnc8c7ncn8[C@H]7C[C@@H](NC(=O)Cc8ccccc8)C7)cc6)CC5)CC4)c3C2=O)C(=O)N1 ... 40
O=C1CC[C@H](N2C(=O)c3ccc(N4CC(C(=O)N5CCC(CN6CCC(CCNc7ncnc8c7ncn8C7CC(NC(=O)c8c(Cl)cccc8Cl)C7)CC6)CC5)C4)cc3C2=O)C(=O)N1 (stereo partly shown) ... 40
O=C1CC[C@@H](c2ccc(OCC(=O)N3CCC(CC(=O)N4CCN(c5ccc(Nc6ncnc7c6ncn7C6CC(NC(=O)Cc7ccccc7)C6)cc5)CC4)CC3)cc2)C(=O)N1 (stereo partly shown) ... 70
Cc1cccc(C(=O)N[C@H]2C[C@@H](n3cnc4c(NCc5ccc(OCCCN6CCN(C(=O)CNc7cccc8c7C(=O)N([C@H]7CCC(=O)NC7=O)C8=O)CC6)cc5)ncnc43)C2)n1 ... 50
O=C1CC[C@H](N2C(=O)c3ccc(N4CCC(C(=O)N5CCC(CCCN6CCN(c7ccc(Nc8ncnc9c8ncn9C8CC(NC(=O)Cc9ccccc9)C8)cc7)CC6)CC5)CC4)cc3C2=O)C(=O)N1 (stereo partly shown) ... 60

Would you kindly look at the next entry?
Reported Enzyme degradation CDK2 (% remaining) @ 10 μM of O=C1CC[C@H](N2C(=O)c3cccc(NCC(=O)N4CCC(CC(=O)N5CCN(c6ccc(Nc7ncnc8c7ncn8C7CC(NC(=O)Cc8ccccc8)C7)cc6)CC5)CC4)c3C2=O)C(=O)N1 (stereo partly shown) : 40

---

I'd appreciate it if you could supply Enzyme degradation CDK9 (% remaining) @ 0.1 μM values for the items below.
# ASSAY TARGET: CDK9 (Homo sapiens)
# Construct: endogenous in cells; host or cells: MDA-MB-231
# TEST METHOD NOTES: CDK protein degradation activity (Western blotting), CDK9
# Format: cell-based
# TEST CONTEXT: MDA-MB-231 cells, 0.1 μM, 16 hours, Western blot
Answers are plain numbers, in %.

Cc1cccc(C(=O)NC2CC(n3cnc4c(NC5CCN(CCCN6CCN(c7cccc8c7C(=O)N([C@H]7CCC(=O)NC7=O)C8=O)CC6)CC5)ncnc43)C2)n1 (some centres unmarked) ... 30
O=C1CC[C@H](N2C(=O)c3cccc(OCC(=O)N4CCC(CC(=O)N5CCN(c6ccc(Nc7ncnc8c7ncn8C7CC(NC(=O)Cc8ccccc8)C7)cc6)CC5)CC4)c3C2=O)C(=O)N1 (some centres unmarked) ... 70

Reported Enzyme degradation CDK9 (% remaining) @ 0.1 μM of O=C1CC[C@H](N2C(=O)c3cc(F)c(N4CCC(C(=O)N5CCC(CN6CCN(c7ccc(Nc8ncnc9c8ncn9C8CC(NC(=O)Cc9ccccc9)C8)cc7)CC6)CC5)CC4)cc3C2=O)C(=O)N1 (some centres unmarked) : 0

---

# ASSAY TARGET: CDK2 (Homo sapiens, UniProt P24941)
# Construct: endogenous in cells; host or cells: MDA-MB-231
# TEST METHOD NOTES: CDK protein degradation activity (Western blotting), CDK2
# Type: cell-based
# TEST CONTEXT: MDA-MB-231 cells, 0.1 μM, 16 hours, Western blot
MEASUREMENT LABEL: Enzyme degradation CDK2 (% remaining) @ 0.1 μM (%)
Give bare numbers, in %.

Sample answers from the record:
O=C1CC[C@@H](c2ccc(OCC(=O)N3CCC(CN4CCC(c5ccc(Nc6ncnc7c6ncn7C6CC(NC(=O)Cc7ccccc7)C6)cc5)CC4)CC3)cc2)C(=O)N1 (some centres unmarked) ... 30
O=C1CCC(N2C(=O)c3ccc(N4CCN(CCCN5CCN(c6ccc(Nc7ncnc8c7ncn8[C@H]7C[C@@H](NC(=O)Cc8ccccc8)C7)cc6)CC5)CC4)cc3C2=O)C(=O)N1 (some centres unmarked) ... 100
N#Cc1cccc(C(=O)NC2CC(n3cnc4c(Nc5ccc(N6CCN(CC7CCN(C(=O)C8CCN(c9cc%10c(cc9F)C(=O)N([C@H]9CCC(=O)NC9=O)C%10=O)CC8)CC7)CC6)cc5)ncnc43)C2)n1 (some centres unmarked) ... 40
O=C1CC[C@H](N2C(=O)c3ccc(N4CC(N5CCC6(CC5)CC(N5CCN(c7ccc(Nc8ncnc9c8ncn9C8CC(NC(=O)Cc9ccccc9)C8)cc7)CC5)C6)C4)cc3C2=O)C(=O)N1 (some centres unmarked) ... 30

Reported Enzyme degradation CDK2 (% remaining) @ 0.1 μM of O=C1CC[C@@H](c2ccc(OCC(=O)N3CCC(CC(=O)N4CCN(c5ccc(Nc6ncnc7c6ncn7C6CC(NC(=O)Cc7ccccc7)C6)cc5)CC4)CC3)cc2)C(=O)N1 (some centres unmarked) : 70

---

# ASSAY TARGET: CDK2 (Homo sapiens, UniProt P24941)
# Construct: endogenous in cells; host or cells: MDA-MB-231
# TEST METHOD NOTES: CDK protein degradation activity (Western blotting), CDK2
# Format: cell-based
# TEST CONTEXT: MDA-MB-231 cells, 0.1 μM, 16 hours, Western blot
I'd appreciate it if you could supply Enzyme degradation CDK2 (% remaining) @ 0.1 μM values for the items below.
Give bare numbers, in %.

Sample answers from the record:
O=C1CC[C@H](N2C(=O)c3ccc(N4CC(C(=O)N5CCC(CCCN6CCN(c7ccc(Nc8ncnc9c8ncn9C8CC(NC(=O)Cc9ccccc9)C8)cc7)CC6)CC5)C4)cc3C2=O)C(=O)N1 (stereo partly shown) ... 90
O=C1CCC(N2C(=O)c3ccc(N4CCC(OCCN5CCN(c6ccc(Nc7ncnc8c7ncn8[C@H]7C[C@@H](NC(=O)Cc8ccccc8)C7)cc6)CC5)CC4)cc3C2=O)C(=O)N1 (stereo partly shown) ... 30
O=C1CC[C@H](N2C(=O)c3cccc(N4CCC5(CC4)CC(N4CCC(c6ccc(Nc7ncnc8c7ncn8C7CC(NC(=O)Cc8ccccc8)C7)cc6)CC4)C5)c3C2=O)C(=O)N1 (stereo partly shown) ... 20
O=C1CC[C@H](N2C(=O)c3ccc(N4CC(C(=O)N5CCC(CN6CCN(c7ccc(Nc8ncnc9c8ncn9C8CC(NC(=O)Cc9ccccc9)C8)cc7)CC6)CC5)C4)cc3C2=O)C(=O)N1 (stereo partly shown) ... 50
O=C1CC[C@H](N2C(=O)c3ccc(N4CCC(CCCN5CCN(c6ccc(Nc7ncnc8c7ncn8C7CC(NC(=O)Cc8ccccc8)C7)cc6)CC5)CC4)cc3C2=O)C(=O)N1 (stereo partly shown) ... 70

State the recorded Enzyme degradation CDK2 (% remaining) @ 0.1 μM for every item in the following list.
1. Cc1cccc(C(=O)NC2CC(n3cnc4c(NCCCN5CCN(CC6CCN(C(=O)COc7cccc8c7C(=O)N([C@@H]7CCC(=O)NC7=O)C8=O)CC6)CC5)ncnc43)C2)n1 (stereo partly shown)
2. O=C1CC[C@H](N2C(=O)c3cccc(NCC(=O)N4CCN(CC5CCN(c6ccc(Nc7ncnc8c7ncn8[C@H]7C[C@@H](NC(=O)Cc8ccccc8)C7)cc6)CC5)CC4)c3C2=O)C(=O)N1
3. O=C1CC[C@H](N2C(=O)c3ccc(N4CC(CN5CCC(CCN6CCN(c7ccc(Nc8ncnc9c8ncn9[C@H]8C[C@@H](NC(=O)Cc9ccccc9)C8)cc7)CC6)CC5)C4)cc3C2=O)C(=O)N1

Data returned:
1: 80; 2: 20; 3: 30

// data source = patent US20260125382A1
